- Test target: Lysyl oxidase homolog 4 (Homo sapiens)
- Sequence (Q96JB6 whole entry): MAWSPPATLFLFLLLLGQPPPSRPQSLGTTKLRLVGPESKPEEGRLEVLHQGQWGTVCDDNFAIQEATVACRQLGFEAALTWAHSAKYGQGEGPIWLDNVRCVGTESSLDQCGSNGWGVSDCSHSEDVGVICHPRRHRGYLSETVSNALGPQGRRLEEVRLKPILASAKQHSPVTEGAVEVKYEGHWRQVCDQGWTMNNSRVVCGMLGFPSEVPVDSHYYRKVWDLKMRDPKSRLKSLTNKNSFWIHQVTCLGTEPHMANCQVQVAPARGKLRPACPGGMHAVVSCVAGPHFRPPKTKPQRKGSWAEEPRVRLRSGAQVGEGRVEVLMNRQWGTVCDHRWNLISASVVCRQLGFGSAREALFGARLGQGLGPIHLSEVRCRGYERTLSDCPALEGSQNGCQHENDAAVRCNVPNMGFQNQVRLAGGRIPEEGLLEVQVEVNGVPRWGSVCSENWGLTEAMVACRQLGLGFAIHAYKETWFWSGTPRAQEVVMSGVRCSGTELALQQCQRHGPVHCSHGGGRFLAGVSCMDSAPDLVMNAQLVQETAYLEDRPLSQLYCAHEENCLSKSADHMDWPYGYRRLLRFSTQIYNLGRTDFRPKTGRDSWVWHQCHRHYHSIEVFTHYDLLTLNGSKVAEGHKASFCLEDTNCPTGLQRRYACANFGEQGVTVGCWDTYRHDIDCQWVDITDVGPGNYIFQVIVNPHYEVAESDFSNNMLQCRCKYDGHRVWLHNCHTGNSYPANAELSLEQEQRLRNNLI
- Assay procedure: Inhibition of recombinant human LOXL4 expressed in baculovirus infected insect cells using diaminopentane as substrate preincubated for 30 mins followed by substrate addition measured after 1 hr by fluorimetric method
Measurement label: pIC50
Kindly note that pIC50 refers to -log10 of the concentration in mol/L and answer with the value alone.

Recorded results for 2 molecules are shown here.
> print(dat)
                                   molecule  measurement.label  endpoint.result
1                    CN(C)C(=S)SSC(=S)N(C)C              pIC50             6.74
2  CCOC(=O)c1sc(N/N=C2\C(=O)N(c3ccccc3)N=C2N)c(C(=O)OCC)c1C              pIC50             5.48

# pIC50 lookup, item `[O-][n+]1ccccc1S`
4.82

Request: `Cc1cc(-c2ccc3c(=O)n(-c4ccccc4)[nH]c3n2)c(C)o1`
4.26

Request: `CCN(CC)C(=S)SSC(=S)N(CC)CC`
7.23

Request: CC1=NN(c2ccccc2)C(=O)C1C (centres undefined)
5.68
